experiment: Pharmacokinetic study in rats
condition: SD (Sprague-Dawley), rat, plasma, oral, 20 μmol/kg, Plasma concentration Rat1, SD rats, intragastric 20 μmol/kg, 90 min, Rat1
Where a name gives a salt, the structure may show the parent alone.
observation.type: concentration at 90 min (nM)
Please state the figure in nM; there is no need to write the unit.

The recorded concentration at 90 min for entry CNC(=O)c1ccc(-c2cnc3ncc(Cc4ccc5ncccc5c4)n3n2)cc1F [INCB28060 hydrochloride] equals 394

###

experiment: Pharmacokinetic study in rats
condition: SD, rat, plasma, oral, 20 μmol/kg, Plasma concentration Rat1, SD rats, intragastric 20 μmol/kg, 15 min, Rat1
Structures can show the parent of a compound that is named as a salt.
observation.type: concentration at 15 min (nM)
Entry rule: numbers only, all in nM.

The measured concentration at 15 min associated with CNC(=O)c1ccc(-c2cnc3ncc(Cc4ccc5ncccc5c4)n3n2)cc1F [INCB28060 hydrochloride] reads 399
